# systemName: AP-1 (Homo sapiens, UniProt P01100+P05412)
# Construct: (Histidine)6; Strep-tag; made in house; host or cells: bacterial cells harboring pFos-Jun
# Sequence (P01100 whole entry): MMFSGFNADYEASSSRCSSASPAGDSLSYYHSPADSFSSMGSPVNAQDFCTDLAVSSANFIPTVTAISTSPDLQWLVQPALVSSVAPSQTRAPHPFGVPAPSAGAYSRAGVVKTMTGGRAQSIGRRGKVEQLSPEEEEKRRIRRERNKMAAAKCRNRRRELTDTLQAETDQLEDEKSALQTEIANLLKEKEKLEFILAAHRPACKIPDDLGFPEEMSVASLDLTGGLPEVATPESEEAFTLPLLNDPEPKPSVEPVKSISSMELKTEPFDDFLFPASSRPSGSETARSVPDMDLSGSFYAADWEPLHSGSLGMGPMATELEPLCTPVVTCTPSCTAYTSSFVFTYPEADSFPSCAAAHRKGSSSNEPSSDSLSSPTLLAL
# Sequence (P05412 whole entry): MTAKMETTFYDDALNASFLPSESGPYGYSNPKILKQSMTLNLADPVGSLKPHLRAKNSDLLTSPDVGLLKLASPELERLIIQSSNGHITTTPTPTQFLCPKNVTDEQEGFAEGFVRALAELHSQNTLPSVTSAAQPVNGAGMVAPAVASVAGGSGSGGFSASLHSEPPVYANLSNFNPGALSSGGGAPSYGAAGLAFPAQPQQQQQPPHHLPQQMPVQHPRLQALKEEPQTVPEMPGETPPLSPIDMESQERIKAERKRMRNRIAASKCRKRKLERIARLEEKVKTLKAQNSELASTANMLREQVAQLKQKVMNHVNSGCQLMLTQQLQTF
# procedureDetails: AP-1 inhibition assay (ELISA), AP-1 binding to AP-1 recognition sequence
readoutLabel: IC50 (µM)
Give bare numbers, in µM.

Would you mind telling me what IC50 value was observed for CCOP(=O)(OCC)C(Cc1ccc(O)c(O)c1)NC(=O)/C=C/c1ccc(O)c(O)c1 (stereo not shown) ?
26.2

----------
# systemName: AP-1 (Homo sapiens, UniProt P01100+P05412)
# Construct: (Histidine)6; Strep-tag; made in house; host or cells: bacterial cells harboring pFos-Jun
# procedureDetails: AP-1 inhibition assay (ELISA), AP-1 binding to AP-1 recognition sequence
# particulars: ELISA, AP-1 binding activity to AP-1 recognition sequence; read-out: IC50 (AP-1 inhibition assay)
# Procedure: To test the effect of the compounds of the present disclosure on AP-1 binding activity to AP-1 recognition sequence, ELISA experiments were performed. According to implementations, binding assays were developed to identify inhibitors that block the AP-1 DNA binding activities. […] Any pair of genes that form heterodimer in the cells for their physiological functions can be potentially expressed as complexes in the cells using this system. […]
Each entry falls into one class according to its IC50; the ranges are low value: < 6 µM; medium value: ≥ 6 µM and < 20 µM; high value: ≥ 20 µM

Into which category would you place COC(=O)C(Cc1ccc(O)c(O)c1)NC(=O)[C@H](Cc1ccc(O)c(O)c1)OC(=O)/C=C/c1ccc(O)c(O)c1 (some centres unmarked) [Compound 13] ?
low value

Provenance of the data: patent US8105636B2
